# maps each entry to its RETENTION TIME
- test-method-notes: Reverse phase HPLC retention time comparison (lipophilicity)
- Format: physicochemical
- measurement-conditions: measure of lipophilicity
- From the text: A series of compounds were produced in accord with the method of Example 1 with various substitutions of 2' deoxycytidine at the N^4 position of the dialkylaminomethylene side chain. Because of economic considerations 2'-deoxycytidine, was used as the parent nucleoside for comparison purposes in this study.

# molecule, RETENTION TIME
measured = [
    ("CN(C)C=Nc1ccn([C@H]2C[C@H](O)[C@@H](CO)O2)c(=O)n1", "3.26 min"),
    ("CC1CCCC(C)N1C=Nc1ccn([C@H]2C[C@H](O)[C@@H](CO)O2)c(=O)n1 (some centres unmarked)", "21.81 min"),
    ("O=c1nc(N=CN2CCCC2)ccn1[C@H]1C[C@H](O)[C@@H](CO)O1", "5.16 min"),
    ("Nc1ccn([C@H]2C[C@H](O)[C@@H](CO)O2)c(=O)n1 [Compound 1, 2'-Deoxycytidine, reference compound]", "2.13 min"),
    ("O=c1nc(N=CN2CCOCC2)ccn1[C@H]1C[C@H](O)[C@@H](CO)O1", "3.07 min"),
    ("CCN(C=Nc1ccn([C@H]2C[C@H](O)[C@@H](CO)O2)c(=O)n1)CC", "6.44 min"),
    ("CCCCN(C=Nc1ccn([C@H]2C[C@H](O)[C@@H](CO)O2)c(=O)n1)CCCC", "125 min"),
    ("O=c1nc(N=CN2CCCCC2)ccn1[C@H]1C[C@H](O)[C@@H](CO)O1", "7.79 min"),
]

Reference for the values: patent US5886162A
